Molecular target: MAP kinase-activated protein kinase 3 (Homo sapiens)
Settings: at 10 µM
quantityName: residual activity (%)

1) O=C1Nc2cc(Br)ccc2/C1=C1/Nc2ccccc2/C1=N\O : 91
2) CO[C@H]1[C@@H](OC)C[C@H](C)[C@@H](OC)C2=CC(=O)C=C(NC(=O)/C(C)=C/C=C/[C@H](OC)[C@@H](OC(N)=O)/C(C)=C/[C@@H]1C)C2=O : 81
3) CC(=O)c1ccc(N2CCOCC2)cc1O : 111
4) Nc1ccc2ncnc(NCCc3ccc(Oc4ccccc4)cc3)c2c1 : 105
5) C[C@@H](N)[C@H]1CC[C@H](C(=O)Nc2ccncc2)CC1 : 85

----------
Biological target: Protein kinase C eta type (Homo sapiens) (UniProt P24723)
Sequence (P24723 whole entry): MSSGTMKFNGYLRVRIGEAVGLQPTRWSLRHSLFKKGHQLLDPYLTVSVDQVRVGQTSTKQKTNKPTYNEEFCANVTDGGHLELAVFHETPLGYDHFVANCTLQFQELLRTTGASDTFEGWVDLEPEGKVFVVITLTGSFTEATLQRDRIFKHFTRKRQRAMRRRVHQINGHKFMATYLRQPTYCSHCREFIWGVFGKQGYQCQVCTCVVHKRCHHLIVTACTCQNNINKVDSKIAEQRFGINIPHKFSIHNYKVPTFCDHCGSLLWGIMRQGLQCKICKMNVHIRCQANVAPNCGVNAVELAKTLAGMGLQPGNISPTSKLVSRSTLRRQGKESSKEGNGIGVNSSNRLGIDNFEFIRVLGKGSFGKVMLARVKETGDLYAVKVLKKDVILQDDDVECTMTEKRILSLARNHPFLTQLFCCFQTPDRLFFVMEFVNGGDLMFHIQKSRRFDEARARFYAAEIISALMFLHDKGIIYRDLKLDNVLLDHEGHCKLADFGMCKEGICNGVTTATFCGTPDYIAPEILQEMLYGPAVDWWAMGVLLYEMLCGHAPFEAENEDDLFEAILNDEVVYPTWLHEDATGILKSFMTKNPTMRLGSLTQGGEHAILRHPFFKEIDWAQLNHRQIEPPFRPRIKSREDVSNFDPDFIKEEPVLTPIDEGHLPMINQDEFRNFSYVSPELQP
Conditions: at 1 µM
Please respond with y when measured residual activity is strictly beneath 90%, and with n in all other cases.

1) N#Cc1cnc2cnc(NCc3cccnc3)cc2c1Nc1ccc(F)c(Cl)c1 : y
2) c1ccc2c(-c3ccncc3)c[nH]c2c1 : y
3) N#C/C(=C(\N)Sc1ccc(N)cc1)c1ccccc1C(F)(F)F : y
4) CCOc1cc2ncnc(Nc3cccc(Br)c3)c2cc1OCC : y
5) CCC(=O)Nc1ccc2ncnc(Nc3cccc(Br)c3)c2c1 : y
6) Cc1nc(-c2ccccc2)c(-c2ccncc2)o1 : n
7) COc1cc2ncnc(Nc3ccc(Oc4ccccc4)cc3)c2cc1OC : n
8) O=[N+]([O-])c1ccc(-c2nc(-c3ccc(F)cc3)c(-c3ccncc3)[nH]2)cc1 : n
9) Cc1cc2ncc(-c3ccccc3)nc2cc1C : n
10) CNc1cc2c(Nc3cccc(Br)c3)ncnc2cn1 : y
11) CO[C@H]1[C@@H](OC)C[C@H](C)[C@@H](OC)C2=CC(=O)C=C(NC(=O)/C(C)=C/C=C/[C@H](OC)[C@@H](OC(N)=O)/C(C)=C/[C@@H]1C)C2=O : n
12) CCN(CC)CCCCN1c2ccccc2Oc2ccc(Cl)cc21 : n
13) COc1cc2ncnc(N3CCN(C(=O)Nc4ccc(Oc5ccccc5)cc4)CC3)c2cc1OC : n
14) Cn1cnc2cc3c(Nc4cccc(Br)c4)ncnc3cc21 : n
15) O=C(Nc1cccc(Nc2cc(Nc3cccc(C(F)(F)F)c3)ncn2)c1)C1CC1 : n
16) CN(C)c1ccc(/C=C2\C(=O)Nc3ccccc32)cc1 : n
17) Nc1n[nH]c2nnc(-c3c(-c4ccccc4)nn4ccccc34)cc12 : y
18) COc1ccc(C(=O)Nc2sc3c(c2C(N)=O)CCCC3)cc1OC : n
19) COc1cc2ncnc(Nc3ccc(O)c(Br)c3)c2cc1OC : n
20) C[C@@H](N)[C@H]1CC[C@H](C(=O)Nc2ccncc2)CC1 : y

----------
Target: Cyclin-dependent kinase 2/cyclin A (Homo sapiens) (UniProt P24941+P20248+P78396)
Settings: at 1 µM
quantityName: residual activity (%)

1. N#CCCc1ccc2c(c1)-c1[nH]c3ccc([N+](=O)[O-])cc3c1CC(=O)N2 : 0
2. CC[n+]1c(/C=C/N(C)c2ccccc2)n(-c2ccccc2)c2ccc(-c3nc4ccccc4s3)cc21 : 146
3. COc1cc2ncnc(Nc3ccc(Oc4ccccc4)cc3)c2cc1OC : 130
4. CCOc1cc2ncnc(Nc3cccc(Br)c3)c2cc1OCC : 136
5. CN(C)c1ccc(/C=C2\C(=O)Nc3ccccc32)cc1 : 111
6. Ic1cccc(CSc2nnc(-c3ccncc3)o2)c1 : 85
7. Cc1cccc(-c2[nH]c(C(C)(C)C)nc2-c2ccc3c(c2)OCO3)n1 : 133
8. COc1ccc(S(=O)(=O)N(CCO)c2ccccc2CN(C)C/C=C/c2ccc(Cl)cc2)cc1 : 76
9. O=c1c2ccccc2[nH]c(=S)n1CCN1CCC(=C(c2ccc(F)cc2)c2ccc(F)cc2)CC1 : 143
10. COc1cccc(-c2cc(=O)c3ccccc3o2)c1N : 93
